B1: tRNA (parent)
chain: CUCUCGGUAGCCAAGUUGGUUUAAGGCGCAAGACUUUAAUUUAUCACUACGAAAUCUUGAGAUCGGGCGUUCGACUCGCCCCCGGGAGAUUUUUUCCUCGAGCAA

variants of: B1; assay: nonsense suppression (GFP-seq) (ratio to wild type); higher = more function; SUP4oc tRNA, yeast GFP reporter sort-seq
Fewer inactive variants are shown than the library holds.

{"columns": ["seq_text", "limit_operator", "nonsense suppression"],
 "data": [
  ["CUCUCGGUAGCCAAGUUUGUUUAAUGCGCAAGACUUUAAUUUAUCACUACGAAAUCUUGAGAUCGGCCGUUCGACUCGCCCCCGGGAGAUUUUUUCCUCGAGCAA", "≤", 0.026],
  ["CUCUCGGUAGCCUAGUUGGUUUAAGGCGCAAGACUUUAAUUUAUCACUACGAAAUCUUGAGAUCGGACGUUCGACUCGCCCCCGGGAGAUUUUUUCCUCGAGCAA", "=", 0.0502],
  ["CUCUCGGUAGCCAAGUUGGGUUAAGGCGCAAGGCUUUAAUUUAUCACUACGAAAUCUUGAGAUCGGGCGUUCGACUCGCCCCCGGGAGAUUUUUUCCUCGAGCAA", "=", 0.18],
  ["CUCUCGGUAGCCAUGUUUGUUUUAGGGGCAAGACUUUAAUUUAUCACUACGAAAUCUUGAGAUCGGGCGUUCGACUCGCCCCCGGGAGAUUUUUUCCUCGAGCAA", "≤", 0.026],
  ["CUCUCGGUAGCCAAGUUGGUUUAAGGCGCAAGACUUUAAUUUAUCACUACGAAAUCUUGCUAUCGGGCGUUCGACUCGCCCCCGGGAGAUUUUUUCCUCGAGCAA", "=", 0.768],
  ["CUCUCGGUAGCCAAGUUGGUUUAAGGCGCAAGACUUUAAUUUAUCACUACGAAAUCUUGAGAUCGGGCGUUCGAAUCGUCCCCGGGAGAUUUUUUCCUCGAGCAA", "=", 1.21],
  ["CUCUCGGUAGCCAAGUUGGUAUACGGCGCAAGACUUUAAUUUAUCACUACGAAAUCUUGAGAUCGGGCGUUCGACUCGCCCCCGGGAGAUUUUUUCCUCGAGCAA", "=", 0.753],
  ["CUCUCGGUAGCCAAGUUGGUUGACGGCGCAAGACUUUAAUUUAUCACUACGAAAUCUUGAGAUCGGGCGUUCGACUCGCCCCCGGGAGAUUUUUUCCUCGAGCAA", "=", 0.817]
]}
